system: SF-539 CNS; experiment: NCI-60 one-dose screen, 48 h; conditions: 10 µM unless noted
The panel holds about 83,000 compounds, 20% with a hit somewhere; the sample as a whole holds those more often. Calls of active or inactive are those of the source. How the source made its calls: active means growth percent below 10; inactive means the rest.
Hello, when you answer, please use one of the following outcomes: active, inactive

Before answering, review these 10 worked examples.
[[record]]
compound = "CCN(c1ccc(C(=O)N2CCN(c3ccccc3)CC2)cc1)S(C)(=O)=O"
group_label = "inactive"

[[record]]
compound = "OC[C@@H](O)[C@@H](O)CO"
group_label = "inactive"

[[record]]
compound = "CCCCc1ccc(C(O)(CCN2CC3CCC(CC3)C2)c2ccccc2)cc1 (stereo unspecified)"
group_label = "inactive"

[[record]]
compound = "O=[N+]([O-])c1ccc(C=C2C(Cl)=C(Cl)C(Cl)=C2Cl)cc1"
group_label = "inactive"

[[record]]
compound = "COc1ccc(OC)c(/C=C2\\Oc3cc(O)ccc3C2=O)c1"
group_label = "inactive"

[[record]]
compound = "FC(F)(F)c1ccc2c(c1)n1cnnc1c1nncn21"
group_label = "inactive"

[[record]]
compound = "COc1ccc(Sc2ccc3[nH]c(=O)nc(N)c3c2)cc1"
group_label = "inactive"

[[record]]
compound = "COc1ccc(Cn2c(Br)c3c(c2-c2cc(OC)c(OC)c(OC)c2)CCc2sc(N)nc2-3)cc1"
group_label = "active"

[[record]]
compound = "COC(=O)c1c2c(c(C)[n+]([O-])c1C)C(=O)C=C(NCc1cccc(Cl)c1)C2=O"
group_label = "active"

[[record]]
compound = "CCCCC1COc2cccc3c(SCC(=O)N(C)c4cccc5ccccc45)cc[n+]1c23 (stereo unspecified)"
group_label = "inactive"


Next:
Incoming: # fetch the recorded call for "CN1CCN(c2nc(-c3ccncc3)nc3sc4c(c23)CCCCCC4)CC1" here
Outgoing: inactive

###

test system: HCT-15 colon; assay: NCI-60 one-dose screen, 48 h (100 = growth as untreated, 0 = no growth, -100 = all killed); conditions: 10 µM unless noted
Compounds without any hit were thinned out: in the full panel of roughly 83,000, 20% have a hit.
Endpoint: growth (%)
Give bare numbers, in %.

Solved entries:
[[record]]
molecule = "C=C(C)CCCC(C)CC#N (stereo not drawn)"
endpoint = "growth"
readout_number = 101

[[record]]
molecule = "Nc1nc(-c2ccnc(Cl)c2)nn1-c1nc2ccccc2s1"
endpoint = "growth"
readout_number = 101

[[record]]
molecule = "O=C1C(N2CCOCC2)=Cc2cccc3cccc1c23"
endpoint = "growth"
readout_number = 92.6

[[record]]
molecule = "CCC(=O)Nc1nnc(Cc2ccc(OC)c(OC)c2)s1"
endpoint = "growth"
readout_number = 31.7

[[record]]
molecule = "CN1CCc2c(c3ccccc3c3ccccc23)C1"
endpoint = "growth"
readout_number = 31.3

[[record]]
molecule = "Cc1nn2c(-c3nc4ccc(Cl)cc4[nH]3)c(-c3ccc(F)cc3)nc2s1"
endpoint = "growth"
readout_number = 76.4


Quick batch: growth for everything below.
1. O=C1C(OCCOc2ccccc2)=C(OCCOc2ccccc2)C(=O)c2ccccc21
2. COc1cc2nc(SCc3cc(OC)c(OC)c(OC)c3)n(-c3ccccc3OC)c(=O)c2cc1OC
3. COc1cc(C(=O)/C=C/c2c(-c3cccs3)nc3sccn23)cc(OC)c1OC
4. COc1cc(NC(=O)COc2ccccc2)c(C(N)=O)cc1OC

Outgoing:
1. 26.7
2. 75.4
3. -36.7
4. 30.1

###

test system: DU-145 prostate; assay: NCI-60 one-dose screen, 48 h; settings: 10 µM unless noted
Compounds without any hit were thinned out: in the full panel of roughly 83,000, 20% have a hit. Active and inactive are the calls of the source. How the source made its calls: active means growth percent below 10; inactive means the rest.
Hello, when you answer, please use one of the following outcomes: active, inactive

[[record]]
compound = "O=C1CCC(N2C(=O)c3cccc(NCCOCCOCCNC(=O)c4cc5c(o4)C(=O)c4ccccc4C5=O)c3C2=O)C(=O)N1 (stereo not given)"
group_label = "active"


Incoming: # fetch the recorded call for "COC(=O)[C@@]12CC[C@@H](C)[C@]3(C[C@@H](c4ccoc4)OC3=O)[C@H]1CC[C@@H]1O[C@@]12C" here
Outgoing: inactive

Incoming: # fetch the recorded call for "NC(=O)c1cc(I)ccc1NC(=O)COc1ccc(Cl)cc1Cl" here
Outgoing: inactive

Incoming: # fetch the recorded call for "COc1nc2c(cc1S(=O)(=O)c1ccccc1)CCc1c-2cnn1-c1ccccc1" here
Outgoing: inactive

Incoming: # fetch the recorded call for "Clc1cccc(Cl)c1Nc1ccc2nnc(-c3ccncc3)n2n1" here
Outgoing: inactive

Incoming: # fetch the recorded call for O=C(N/N=C/c1ccc(OC(F)F)c(OC2CCCC2)c1)c1cnn2c1NC(c1ccccc1)C2 (stereo not given) here
Outgoing: inactive

Incoming: # fetch the recorded call for "COC(=O)c1c2c(c(C)[n+]([O-])c1C)C(=O)C=C(NCc1ccc(Cl)cc1)C2=O" here
Outgoing: active

Incoming: # fetch the recorded call for "O=[N+]([O-])c1ccc(C=C2C(Cl)=C(Cl)C(Cl)=C2Cl)cc1" here
Outgoing: inactive

Incoming: # fetch the recorded call for "COc1cccc(OC)c1OC(=O)c1ccccc1" here
Outgoing: inactive

Incoming: # fetch the recorded call for "O=C1/C(=C/c2ccc(Cl)cc2)N=C(c2ccccc2)N1CCc1cccs1" here
Outgoing: inactive

###

tested on: NCI-H322M lung; assay: NCI-60 one-dose screen, 48 h (100 = growth as untreated, 0 = no growth, -100 = all killed); conditions: 10 µM unless noted
This is part of a sample that, as a whole, favours compounds with a hit. Of some 83,000 tested, about 20% had one in any assay. Activity calls are given as the source filed them. The calls were made as follows: active = growth percent below 10; inactive = the rest.
I'd appreciate it if you could supply growth values for the items below.

Quick batch: growth for everything below.
1. CCN(CC)CCCNc1ccc(C)c2sc3ccccc3c(=O)c12
2. COc1ccc(-c2[nH]ncc2Nc2cc(OC)c(OC)c(OC)c2)cc1
3. O=c1[nH]c(=S)[nH]c(=O)n1Cc1cccc2ccccc12
4. O=c1[nH]c(-c2ccncc2)nc2sc3c(c12)CCCCCC3

Outgoing:
57.2% (inactive)
48.7% (inactive)
114% (inactive)
59.4% (inactive)

###

Test system: UACC-257 melanoma
Assay: NCI-60 one-dose screen, 48 h
Conditions: 10 µM unless noted
Protocol: Cells are grown in 96 well plates and exposed to the test compound for 48 hours. Compounds are tested at a single concentration, which is 10^-5 M for most compounds. The reported endpoint is percent growth (GI% or GIPRCNT), where numbers from 0 - 100% represent growth inhibition, and numbers from -100% - 0 represent cell death. For example, a value of 40 represents 60% growth inhibition. A value of 0 means no net growth occurred over the course of the experiment. […]
Compounds without any hit were thinned out: in the full panel of roughly 83,000, 20% have a hit. Activity calls are given as the source filed them. Rule for the calls: active = growth percent below 10; inactive = the rest.
Hello, when you answer, please use one of the following outcomes: active, inactive

[[record]]
compound = "CCOC(=O)c1c(Cl)c2c(n1Cc1cc(OC)cc(OC)c1)-c1oncc1CCC2"
target = "UACC-257 melanoma"
group_label = "inactive"

[[record]]
compound = "CCCCCCCC/C=C\\CCCCCCCCOc1cccc(CC(=O)NCC[N+]2(C)CCCC2)c1"
target = "UACC-257 melanoma"
group_label = "inactive"

[[record]]
compound = "C(=C\\c1ccccc1)/CN1CCN(C(c2ccccc2)c2ccccc2)CC1"
target = "UACC-257 melanoma"
group_label = "inactive"

[[record]]
compound = "Cn1c(=O)c(S(=O)(=O)c2ccccc2)cc2ccc3c(cnn3-c3ccc(Cl)cc3)c21"
target = "UACC-257 melanoma"
group_label = "inactive"

[[record]]
compound = "COc1cc(C2C3=C(COC3=O)N(CCO)c3cc4c(cc32)OCO4)cc(OC)c1O (centres undefined)"
target = "UACC-257 melanoma"
group_label = "inactive"

[[record]]
compound = "O/N=C/c1cccs1"
target = "UACC-257 melanoma"
group_label = "inactive"

[[record]]
compound = "COC(=O)[C@@]12CC[C@@H](C)[C@]3(C[C@@H](c4ccoc4)OC3=O)[C@H]1CC[C@@H]1O[C@@]12C"
target = "UACC-257 melanoma"
group_label = "inactive"

[[record]]
compound = "C[C@]1(CO)C[C@@H](O)C[C@]2(C)[C@@H]1CC[C@@]13C[C@@H]4[C@@H](C[C@H]12)[C@]4(C)C3"
target = "UACC-257 melanoma"
group_label = "inactive"


Next:
Incoming: # fetch the recorded call for "COC(=O)c1c2c(c(C)[n+]([O-])c1C)C(=O)C=C(NCc1ccc(F)cc1)C2=O" here
Outgoing: active

###

tested on: SNB-19 CNS; test: NCI-60 one-dose screen, 48 h (100 = growth as untreated, 0 = no growth, -100 = all killed); conditions: 10 µM unless noted
The panel holds about 83,000 compounds, 20% with a hit somewhere; the sample as a whole holds those more often. Activity calls are given as the source filed them. Rule for the calls: active = growth percent below 10; inactive = the rest.
Endpoint: growth

Solved entries:
[[record]]
molecule = "O=C1C(OCCOc2ccccc2)=C(OCCOc2ccccc2)C(=O)c2ccccc21"
endpoint = "growth"
result = "57.6% (inactive)"

[[record]]
molecule = "NC(=S)N/N=C1\\c2ccccc2-c2c(F)c(F)c(F)c(F)c21"
endpoint = "growth"
result = "89% (inactive)"

[[record]]
molecule = "C=C[C@H]1C[C@@H]2C[C@@H]3[C@H]4C/C=C\\C(=O)NCCCC5NC(=O)C(=C(O)/C=C/[C@@H]4CC(=O)[C@H]3[C@@H]2[C@H]1C)C5=O (stereo partly specified)"
endpoint = "growth"
result = "-74% (active)"

[[record]]
molecule = "CN1CCN(CCCn2c3c(sc4ncccc43)c(=O)n3nnc(-c4ccccc4)c23)CC1"
endpoint = "growth"
result = "5.98% (active)"

[[record]]
molecule = "COc1ccc(Sc2ccc3[nH]c(=O)nc(N)c3c2)cc1"
endpoint = "growth"
result = "94.1% (inactive)"

[[record]]
molecule = "O=C(c1ccc2ncc(-c3nc(NC4CC4)ncc3F)n2c1)N1CCOCC1"
endpoint = "growth"
result = "45.8% (inactive)"


Quick batch: growth for everything below.
1. COc1ccc(/C=C(\C#N)c2cc3ccccc3n2C)cc1
2. O=C1c2cc(S(=O)(=O)O)ccc2C(=O)c2c1cccc2[N+](=O)[O-]
3. COc1ccc(-c2[nH]ncc2Nc2cc(OC)c(OC)c(OC)c2)cc1
4. O=C1c2ccccc2-c2nnc(-c3ccc(Br)cc3)cc21
5. COc1ccc2nc(-n3nc(C)cc3C)c(-n3nc(C)cc3C)nc2c1

Outgoing:
1: 32.8% (inactive); 2: 106% (inactive); 3: 34.6% (inactive); 4: 87.1% (inactive); 5: 102% (inactive)
